Here the recorded transcriptional activation domain activity is given for each entry.
System: Saccharomyces cerevisiae
measurementProtocol: transcriptional activation domain activity (GFP:mCherry ratio, weighted mean of sorted bins, harmonized to initial dataset scale) (arbitrary fluorescence ratio units); higher = stronger transcriptional activation
conditionsUsed: beta-estradiol 1 µM; induction time 4 h
measurementKind: transcriptional activation domain activity

{"residueCodes": "MLRVIVLLIVIDHLLYLPWLYFATYNARLLSCQSSTGRIYIERNCHSHSYGDK", "assaySystem": "Saccharomyces cerevisiae", "numericValue": 50700}
{"residueCodes": "MHIVVTLCYFMTYLKPRRKDIYQRVQRWLPKIWTKFWQEIKRNDSFSYVFVDK", "assaySystem": "Saccharomyces cerevisiae", "numericValue": 49500}
{"residueCodes": "TKAATGGTASSSKPQLAVQKKQQPAEGKKQPVTQKLPPAAAQKLQQKAPATAA", "assaySystem": "Saccharomyces cerevisiae", "numericValue": 29300}

====

Test system: Saccharomyces cerevisiae
measurementProtocol: transcriptional activation domain activity (GFP:mCherry ratio, weighted mean of sorted bins, harmonized to initial dataset scale) (arbitrary fluorescence ratio units); higher = stronger transcriptional activation
conditionsUsed: beta-estradiol 1 µM; induction time 4 h
Reported transcriptional activation domain activity values for the following sequences.
measurementKind: transcriptional activation domain activity

{"residueCodes": "GTGDEQTGSGEKGKKKKASRACYHCQKAHLTCDDARPCGRCVKRNLASTCTDG", "result": 40600}
{"residueCodes": "PQPAAGKRKRGRPRTSLPESEPRSEDRRSNTPSAAPQQSAKKSRGRPPKAASK", "result": 38800}
{"residueCodes": "NSIIPFFRFLGCIVLSGAFYFYIFFYAFLLCLFLIYFFFHGSKLGFFHFIFFP", "result": 40600}

Hello, the source for this data is the supplement of paper PMC12636428, in case you need it.
